Source listed as PubChem BioAssay AID2060602.

System: 648629-189-R-J1-PDC complex spheroids viability
test: Anticancer human tumor 648629-189-R-J1-PDC patient-derived bladder carcinoma cell line growth inhibition [CLK]
test_settings: curve of first compound; second compound 0.1 µM
attribute_measured: pIC50
# reply with the number alone; pIC50 is -log10 of concentration in mol/L

// pIC50 lookup, key: NC(=O)C(=Cn1cnc(-c2cc(C(F)(F)F)cc(C(F)(F)F)c2)n1)c1cncnc1 + CN1CCN(c2cc(C(=O)Nc3cc4cc(-c5cnn(C)c5)ccc4cn3)ccn2)CC1
7.27

Give the measured pIC50 of O=c1[nH]cc(F)c(=O)[nH]1 + CNC(=O)c1ccc(Nc2nc(OC3CCCC3)c3c(-c4ccc5nc(C)oc5c4)c[nH]c3n2)c(OC)c1 .
6.27

For COc1c(OCCCN2CCOCC2)ccc2c3n(c(=NC(=O)c4cnc(N)nc4)nc12)CCN3 + CN1CCN(c2cc(C(=O)Nc3cc4cc(-c5cnn(C)c5)ccc4cn3)ccn2)CC1 , what is its reported pIC50?
7.13

* * *

System: 648629-189-R-J1-PDC complex spheroids viability
test: Anticancer human tumor 648629-189-R-J1-PDC cell line growth inhibition [CLK]; active = viability on the fitted dose curve at most 10% of control; inactive = the rest
test_settings: second compound 1 µM; first compound 3.16 µM
Thanks in advance; please answer with one of these: true (1) = active, false (0) = inactive

Here's what some known entries look like.
CC1(C)CCC(CN2CCN(c3ccc(C(=O)NS(=O)(=O)c4ccc(NCC5CCOCC5)c([N+](=O)[O-])c4)c(Oc4cnc5[nH]ccc5c4)c3)CC2)=C(c2ccc(Cl)cc2)C1 + CN1CCN(c2cc(C(=O)Nc3cc4cc(-c5cnn(C)c5)ccc4cn3)ccn2)CC1 :: true (1)
Nc1ccccc1NC(=O)c1ccc(CNC(=O)OCc2cccnc2)cc1 + CN1CCN(c2cc(C(=O)Nc3cc4cc(-c5cnn(C)c5)ccc4cn3)ccn2)CC1 :: true (1)
C=C(F)C(=O)N1CCN(c2nc(OCC3CCCN3C)nc3c2CCN(c2cccc4cccc(Cl)c24)C3)CC1CC#N (stereo not given) + CN1CCN(c2cc(C(=O)Nc3cc4cc(-c5cnn(C)c5)ccc4cn3)ccn2)CC1 :: true (1)
COC1C=CCC(C)C(C)S(=O)(=O)NC(=O)c2ccc3c(c2)N(CC2CCC21)CC1(CCCc2cc(Cl)ccc21)CO3 (stereo not given) + CNC(=O)c1ccc(Nc2nc(OC3CCCC3)c3c(-c4ccc5nc(C)oc5c4)c[nH]c3n2)c(OC)c1 :: true (1)

Could you now look at the following molecule, please?
Hello, I am checking results. What call was entered for COc1ccc([C@@H](O)c2cc(-c3ncnc4cc(N5CCOCC5)ccc34)c(F)cc2Cl)nn1 + CNC(=O)c1ccc(Nc2nc(OC3CCCC3)c3c(-c4ccc5nc(C)oc5c4)c[nH]c3n2)c(OC)c1 ?
false (0)

* * *

Tested on: 648629-189-R-J1-PDC complex spheroids viability
test: Anticancer human tumor 648629-189-R-J1-PDC cell line growth inhibition [CLK]; active means viability on the fitted dose curve at most 10% of control; inactive means the rest
test_settings: second compound 10 µM; first compound 0.003 µM
Source text: A high-throughput screen of multi-cell type tumor spheroids was designed to identify active combinations of […] and targeted small molecules. Complex spheroids include a stromal component modeled by human endothelial cells (HUVEC) and fibroblasts modeled by human mesenchymal stem cells (MSCs). […] Compounds. […] If the clinical Cmax for an agent had not been determined, the highest concentration tested was 10 microM. […]
Your answer must be one of the following: Y = active, N = inactive

// below: answered compounds
CC(C)CC(NC(=O)C(Cc1ccccc1)NC(=O)c1cnccn1)B(O)O (centres undefined) + CNC(=O)c1ccc(Nc2nc(OC3CCCC3)c3c(-c4ccc5nc(C)oc5c4)c[nH]c3n2)c(OC)c1 :: N
CC(C)CC(NC(=O)C(Cc1ccccc1)NC(=O)c1cnccn1)B(O)O (centres undefined) + CN1CCN(c2cc(C(=O)Nc3cc4cc(-c5cnn(C)c5)ccc4cn3)ccn2)CC1 :: Y
C=CC(=O)Nc1cc(Nc2nccc(-c3cn(C)c4ccccc34)n2)c(OC)cc1N(C)CCN(C)C + CNC(=O)c1ccc(Nc2nc(OC3CCCC3)c3c(-c4ccc5nc(C)oc5c4)c[nH]c3n2)c(OC)c1 :: N

Please state the recorded outcome for this compound: C=CC(=O)Nc1cc(Nc2nccc(-c3cn(C)c4ccccc34)n2)c(OC)cc1N(C)CCN(C)C + CN1CCN(c2cc(C(=O)Nc3cc4cc(-c5cnn(C)c5)ccc4cn3)ccn2)CC1
Y
